- Subject Of Test: B2 bradykinin receptor (Cavia porcellus, UniProt O70526)
- Sequence (O70526 whole entry): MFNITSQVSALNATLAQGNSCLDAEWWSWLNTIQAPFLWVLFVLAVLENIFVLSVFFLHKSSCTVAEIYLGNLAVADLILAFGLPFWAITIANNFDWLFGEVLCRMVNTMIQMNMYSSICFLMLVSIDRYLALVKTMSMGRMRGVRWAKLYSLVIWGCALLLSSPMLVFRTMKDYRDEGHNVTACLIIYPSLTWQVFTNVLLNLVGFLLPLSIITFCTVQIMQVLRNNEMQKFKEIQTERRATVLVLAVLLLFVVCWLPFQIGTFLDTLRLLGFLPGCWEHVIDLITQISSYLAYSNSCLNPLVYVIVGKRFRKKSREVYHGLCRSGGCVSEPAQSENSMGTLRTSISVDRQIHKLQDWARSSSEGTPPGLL
- Assay Remarks: Inhibition of the specific binding of [3H]BK to Bradykinin receptor B2 in guinea pig ileum membrane preparations
pIC50: −log10 of the molar value.
Please mark TRUE if the recorded pIC50 is equal to or greater than 8, and FALSE if it falls below.

Ask | Hi team, for "CC(=O)Nc1ccc(/C=C/C(=O)NCc2cccn2-c2ccc(Cl)c(COc3cccc4ccc(C)nc34)c2Cl)cn1" , is the recorded pIC50 at or above 8?
Reply | TRUE

Ask | Hi team, for "Cc1ccc2cccc(OCc3c(Cl)ccc(N(C)C(=O)CNC(=O)/C=C/c4ccc(N5CCCC5=O)cc4)c3Cl)c2n1" , is the recorded pIC50 at or above 8?
Reply | TRUE

Ask | Hi team, for "Cc1ccc2cccc(OCc3c(Cl)ccc(-n4cccc4CNC(=O)/C=C/c4ccc(N5CCCC5=O)cc4)c3Cl)c2n1" , is the recorded pIC50 at or above 8?
Reply | TRUE

Ask | Hi team, for "CNC(=O)c1ccc(/C=C/C(=O)Nc2cccc(-c3ccc(C)c(COc4cccc5ccc(C)nc45)c3C)c2)cc1" , is the recorded pIC50 at or above 8?
Reply | FALSE

Ask | Hi team, for "Cc1ccc2cccc(OCc3c(Cl)ccc(N(C)C(=O)CNC(=O)/C=C/c4ccc(/C=C/c5ccncc5)nc4)c3Cl)c2n1" , is the recorded pIC50 at or above 8?
Reply | TRUE

###

- Subject Of Test: UniProtKB O70526
- Assay Remarks: Inhibition of the specific binding of [3H]BK to Bradykinin receptor B2 in guinea pig ileum membrane preparations
For each entry below, report its pIC50 value.
The meaning of pIC50 here: minus log10 of the concentration in molar units.

Form field pIC50, entry "CNC(=O)c1ccc(/C=C/C(=O)NCC(=O)N(C)c2ccc(OC)c(COc3cccc4ccc(C)nc34)c2OC)cc1" : 7.77

Form field pIC50, entry "CNC(=O)c1ccc(/C=C/C(=O)NCC(=O)N(C)c2cccc(COc3cccc4ccc(C)nc34)c2C)cc1" : 7.77

Form field pIC50, entry "CNC(=O)c1ccc(/C=C/C(=O)NC/C=C\c2ccc(Cl)c(COc3cccc4ccc(C)nc34)c2Cl)cc1" : 7.77
